Assay protocol: Selectivity index, ratio of IC50 for human WI-38 cells to IC50 for human A549 cells
Assay type: toxicity
Test settings: WI-38 cells versus A549 cells, read-out: Ratio IC50

Chem smiles	selectivity ratio
O=C(CS)OC1(C(=O)Nc2ccc(N3C(=O)c4ccccc4C3=O)cc2)CCCCC1	9.04
O=C(/C=C/c1ccc(C(F)(F)F)cc1)OC1(C(=O)Nc2ccc(N3C(=O)c4ccccc4C3=O)cc2)CCCCC1	38.3
O=C(OC1(C(=O)Nc2ccc(N3C(=O)c4ccccc4C3=O)cc2)CCCCC1)c1ccccc1Cl	16.2
O=C(COc1ccccc1-c1nc(-c2ccccc2)no1)OC1(C(=O)Nc2ccc(N3C(=O)c4ccccc4C3=O)cc2)CCCCC1	25.8
[N-]=[N+]=NCC(=O)OC1(C(=O)Nc2ccc(N3C(=O)c4ccccc4C3=O)cc2)CCCCC1	24.2
O=C(Cc1ccccc1)OC1(C(=O)Nc2ccc(N3C(=O)c4ccccc4C3=O)cc2)CCCCC1	36.2
O=C(OC1(C(=O)Nc2ccc(N3C(=O)c4ccccc4C3=O)cc2)CCCCC1)c1ccc(NS(=O)(=O)c2ccccc2)cc1	13.4
O=C(/C=C/c1ccccc1)OC1(C(=O)Nc2ccc(N3C(=O)c4ccccc4C3=O)cc2)CCCCC1	28.2
